# Test system: HS 578T breast
# Procedure text: NCI-60 one-dose screen, 48 h
# Condition context: 10 µM unless noted
# Method: Growth inhibition of the HS 578T human tumor cell line is measured as a screen for anti-cancer activity. Cells are grown in 96 well plates and exposed to the test compound for 48 hours. Compounds are tested at a single concentration, which is 10^-5 M for most compounds. The reported endpoint is percent growth (GI% or GIPRCNT), where numbers from 0 - 100% represent growth inhibition, and numbers from -100% - 0 represent cell death. For example, a value of 40 represents 60% growth inhibition. […]
Compounds without any hit were thinned out: in the full panel of roughly 83,000, 20% have a hit. Active and inactive are the calls of the source. The calls were made as follows: active = growth percent below 10; inactive = the rest.
Outcomes: true = active, false = inactive

* CC(=O)c1nc2ccccc2n1CC(=O)c1cccc(Cl)c1 | false
* CNC(=O)c1cc(Oc2ccc(NC(=O)Nc3ccc(Cl)c(SC)c3)c(F)c2)ccn1 | false
* FC(F)(F)Oc1ccc2nc3nc4ccc[nH]c4cc3c2c1 | false
* CCN(CC)c1ccc(-c2cc(-c3cc(OC)c(OC)c(OC)c3)nc(N3CCOCC3)c2C#N)cc1 | false
* COc1ccc(C2CC(c3ccc(Cl)cc3)=NN2/C=C2\SC(=S)N(NC(=O)Cc3ccccc3Nc3c(Cl)cccc3Cl)C2=O)cc1 (stereo not given) | false
* COc1ccc(-c2cc(C(=O)N=Nc3c(O)[nH]c4ccc(Br)cc34)no2)cc1 | false
* Cn1ccnc1C(=O)/C=C/c1ccccc1 | true
* COc1ccc2[nH]cc(-c3noc(C(=O)c4cn(C)c5ccc(F)cc45)n3)c2c1 | false
* COc1ccc(CCNc2nc3c(c(=O)n(Cc4ccc(Br)cc4)c(=O)n3C)n2C)cc1OC | false
* CC(C)(C)N1CCC1CN (stereo not given) | false

* * *

# Tested on: ACHN renal
# Procedure text: NCI-60 one-dose screen, 48 h (100 = growth as untreated, 0 = no growth, -100 = all killed)
# Condition context: 10 µM unless noted
This is part of a sample that, as a whole, favours compounds with a hit. Of some 83,000 tested, about 20% had one in any assay. Activity calls are given as the source filed them. Rule for the calls: active = growth percent below 10; inactive = the rest.
Listing of recorded growth by entry.
Measure name: growth

* CSc1nc2c(c(=O)[nH]1)C1(C(=O)Nc3ccccc31)c1c(nc(SC)[nH]c1=O)N2 | 103% (inactive)
* CC1=C[C@H]2c3c(c(O)c(O)c4oc5cc(O)ccc5c(=O)c34)[C@H](c3cc(O)c(O)c4oc5cc(O)ccc5c(=O)c34)[C@H]2C(C)(C)C1 | 37.9% (inactive)
* CCOC(=O)c1csc(NC(=O)COc2cccc(/C=C3\CSc4ccccc4C3=O)c2)n1 | 45.5% (inactive)
* CCOC(=O)c1cc(C(=O)c2ccc(O)c(O)c2)n2ccc(-c3ccn4c(C(=O)c5ccc(O)c(O)c5)cc(C(=O)OCC)c4c3)cc12 | 97.4% (inactive)
* NC(N)=N/N=C(/c1ccccc1)c1ccc(F)cc1 | 29.3% (inactive)
* O=C1/C(=C(/c2ccccc2)N2CCOCC2)Cc2ccccc21 | -39.6% (active)
* CCOc1nc(-c2ccccc2)cc2c(O)c(C(=O)N/N=C/c3ccc(O)cc3O)[nH]c(=O)c12 | 9.99% (active)
* CCc1c(Nc2ccccc2C)nc(N)[nH]c1=O | 106% (inactive)
* O=C(CCCCC(=O)N/N=C\c1ccccc1O)N/N=C\c1ccccc1O | 13.2% (inactive)

* * *

# System: IGROV1 ovarian
# Procedure text: NCI-60 one-dose screen, 48 h (100 = growth as untreated, 0 = no growth, -100 = all killed)
# Condition context: 10 µM unless noted
This is part of a sample that, as a whole, favours compounds with a hit. Of some 83,000 tested, about 20% had one in any assay.
Kindly return true (1) if reported growth is no lower than 60%; return false (0) if it is lower.

* CCCCN(CCCC)CCCn1c(-c2ccccc2)ccc1-c1ccccc1 | true (1)
* Cc1cc(N2CCCC2)nc(NC2CCCC(Nc3ccnc4cc(Cl)ccc34)C2)n1 (stereo not given) | false (0)
* COc1ccc(/C=N/C2=C(C#N)C(c3ccc(N(C)C)cc3)c3ccc4ccccc4c3O2)cc1 (stereo not given) | false (0)
* CN1CCN(c2nc(NCCCNc3ccnc4cc(Cl)ccc34)c3ccccc3n2)CC1 | true (1)

* * *

# Tested on: A498 renal
# Procedure text: NCI-60 one-dose screen, 48 h (100 = growth as untreated, 0 = no growth, -100 = all killed)
# Condition context: 10 µM unless noted
# Procedure: Growth inhibition of the A498 human tumor cell line is measured as a screen for anti-cancer activity. Cells are grown in 96 well plates and exposed to the test compound for 48 hours. Compounds are tested at a single concentration, which is 10^-5 M for most compounds. The reported endpoint is percent growth (GI% or GIPRCNT), where numbers from 0 - 100% represent growth inhibition, and numbers from -100% - 0 represent cell death. For example, a value of 40 represents 60% growth inhibition. […]
The panel holds about 83,000 compounds, 20% with a hit somewhere; the sample as a whole holds those more often.
For each record, check the reported growth: if it is below 90% write true, else write false.

• COc1ccc(NC(=O)c2ccc(/C=C/C(=O)c3ncc[nH]3)cc2)cc1 = true
• COc1ccc(-c2nc3ccc(-c4nc5ccc(N6CCN(c7ccncc7)CC6)cc5[nH]4)cc3[nH]2)cc1OC = true
• CCOC(=O)c1c(C(=O)OCC)c2cc(-c3ccn4c(C(=O)c5ccccc5)c(C(=O)OCC)c(C(=O)OCC)c4c3)ccn2c1C(=O)c1ccccc1 = true
• CSc1nc(Nc2cccc(NC(=O)CCl)c2)c(C#N)c(-c2cccc([N+](=O)[O-])c2)n1 = false
• Clc1ccc2c(NCCCCNc3nc(N4CCCCC4)nc4ccccc34)ccnc2c1 = true
• Cn1ccnc1C(=O)/C=C/c1ccc(CC(=O)Nc2ccccc2)cc1 = true

* * *

# Test system: NCI-H460 lung
# Procedure text: NCI-60 one-dose screen, 48 h
# Condition context: 10 µM unless noted
Compounds without any hit were thinned out: in the full panel of roughly 83,000, 20% have a hit. The source made the active and inactive calls. How the source made its calls: active means growth percent below 10; inactive means the rest.
Outcomes: active, inactive

• C#Cc1cccc(NC(=O)c2ccccc2NC(=O)C=C)c1 = inactive
• COc1ccc(/C=N/C2=C(C#N)C(c3ccc(N(C)C)cc3)c3ccc4ccccc4c3O2)cc1 (stereo not given) = inactive
• CCOc1cc2ncc(C#N)c(Nc3ccc(OCc4cccc(F)c4)c(Cl)c3)c2cc1NC(=O)CC1CCSS1 (stereo not given) = active
• CCOC(=O)n1cc(-c2nonc2-c2cn(C)c3ncccc23)c2cc(F)ccc21 = inactive
• O=C1Nc2c(ccc(Cl)c2Cl)/C1=C\c1cc(C(F)(F)F)cc(C(F)(F)F)c1 = active
• COc1nc2c(c(=O)n1C)CN(Cc1ccccc1)C=N2 = inactive
• N#Cc1c(-c2ccc(Cl)cc2)nc(NN=Cc2ccco2)nc1N1CCOCC1 = inactive
• COc1cccc(/C=C2\SC(=Nc3ccc(NC(C)=O)cc3)NC2=O)c1OC = inactive
• Cc1cc(C)nc(SC2=C(Nc3ccc(O)cc3)C(=O)N(Cc3ccccc3)C2=O)n1 = inactive
• COc1cc2c(cc1O)CC[C@@H]1[C@@H]2CC[C@]2(C)[C@@H](OCCCN(C)C)CC[C@@H]12 = active
• C#CCOc1ccc2ncnc(N3CCN(C(=O)CCl)CC3)c2c1 = inactive
• O=C1OC(c2ccccc2)C(O)=C1c1ccccc1 (stereo not given) = inactive
• O=C(/C=C/c1cccc([N+](=O)[O-])c1)c1ccc(O)c(CN2CCN(c3cc4c(cc3F)c(=O)c(C(=O)O)cn4C3CC3)CC2)c1 = inactive
• O=C1/C(=C/N2N=C(c3ccc4ccccc4c3)CC2c2ccccc2O)SC(=S)N1c1cccnc1 (stereo not given) = inactive
• O=c1nc2oc3ccc4ccccc4c3cc-2s1 = inactive
• N#CN1CCC[C@H]1C(=O)N1CCc2c(-c3[nH]nc4ncccc34)cccc21 = active
• C=C1C(=O)O[C@H]2[C@H]1CC/C(COC(=O)NCCc1ccc(OC)c(OC)c1)=C\CC[C@@]1(C)O[C@@H]21 = inactive
• CCN=C1C=CC(=C(c2ccc(N)cc2)c2ccc(N(CC)CC)c(C)c2)C=C1 = active
• CN(Cc1cc(Cl)cc(Cl)c1O)Cc1cc(Cl)cc(Cl)c1O = inactive
• COc1ccc(/C=C/c2nc3ccccc3nc2/C=C/c2ccc(OC)cc2)cc1 = inactive

* * *

# Test system: 786-0 renal
# Procedure text: NCI-60 one-dose screen, 48 h (100 = growth as untreated, 0 = no growth, -100 = all killed)
# Condition context: 10 µM unless noted
Compounds without any hit were thinned out: in the full panel of roughly 83,000, 20% have a hit.
Measure name: growth (%)

- COc1ccc(/C=C/c2nc3ccccc3nc2/C=C/c2ccc(OC)cc2)cc1: 88.8
- Oc1ccccc1-c1nnc(CNc2ccc(Cl)cc2)o1: 36.7
- C=C(C)[C@@H]1CC[C@]2(C(=O)OC)CC[C@]3(C)[C@H](CC[C@@H]4[C@@]5(C)C/C(=C/c6ccc(OC)cc6)C(=O)C(C)(C)[C@@H]5CC[C@]43C)[C@@H]12: 92.2
- Nc1ccc(S(=O)(=O)O)c2ccc(N=Nc3ccc(N=Nc4ccc(S(=O)(=O)O)cc4)c4ccccc34)c(O)c12: 102
- Cc1[nH]c(-c2cc(N)ccc2Cl)c2c1C(=O)CCCC2: 40.1
